# inhibition at 10 µM listing for each entry below
Test system: NIH/3T3 fibroblast cells
Experiment: MTT assay on non-malignant fibroblasts (selectivity)
Type: cell-based, murine
Conditions: Mus musculus, NIH3T3; NIH/3T3, 10 μM, 72 h; read-out: Growth inhibition (%) ± SEM
Method: The in vitro anticancer effects of the presented compounds were assessed using the standard MTT [3-(4,5-dimethylthiazol2-yl)-2,5-diphenyltetrazolium bromide] assay on the following human cancer cell lines: cervical (HeLa and SiHa), breast (MCF-7 and MDA-MB-231) and ovarian cancer (A2780). The selectivity of the tested compounds was determined on murine embryonal fibroblast cells (NIH/3T3). […] The IC50 values were calculated using sigmoid curve fitting. […]
Numeric only. Scale: %

INSERT INTO results (molecular_string, measured_result) VALUES
  ('COC(=O)[C@]1(C)CCC[C@@]2(C)[C@@H]3CC[C@@]4(CO)C[C@]3(CC[C@@H]21)C[C@H]4NCc1ccc(OC)cc1', 20.3),
  ('COC(=O)[C@]1(C)CCC[C@@]2(C)[C@@H]3CC[C@@]4(CNCc5ccc(OC)cc5)C[C@]3(CC[C@@H]21)C[C@H]4O', 96.9),
  ('COC(=O)[C@]1(C)CCC[C@@]2(C)[C@@H]3CC[C@@]4(CO)C[C@]3(CC[C@@H]21)C[C@H]4N[C@H](C)c1ccc2ccccc2c1', 20.5),
  ('COC(=O)[C@]1(C)CCC[C@@]2(C)[C@@H]3CC[C@@]4(CO)C[C@]3(CC[C@@H]21)C[C@H]4NCc1ccccc1', 25.7),
  ('COC(=O)[C@]1(C)CCC[C@@]2(C)[C@@H]3CC[C@@]4(CNCc5cccc6ccccc56)C[C@]3(CC[C@@H]21)C[C@H]4O', 25.7),
  ('COC(=O)[C@]1(C)CCC[C@@]2(C)[C@@H]3CC[C@@]4(CO)C[C@]3(CC[C@@H]21)C[C@H]4N', 22.1);

Value of measured inhibition at 10 µM for the entry COC(=O)[C@]1(C)CCC[C@@]2(C)[C@@H]3CC[C@@]4(CN[C@@H](C)c5ccc6ccccc6c5)C[C@]3(CC[C@@H]21)C[C@H]4O : 21.5

The molecule COC(=O)[C@]1(C)CCC[C@@]2(C)[C@@H]3CC[C@@]4(CNCc5ccccc5)C[C@]3(CC[C@@H]21)C[C@H]4O showed inhibition at 10 µM equal to 49

###

system: MDA-MB-231 cells; test: MTT antiproliferative assay, MDA-MB-231; assay type: cell-based; settings: Homo sapiens; MDA-MB-231, 10 μM, 72 h; read-out: Growth inhibition (%) ± SEM
PROPERTY_MEASURED: inhibition at 10 µM (%)
Enter your answer as a number in %; do not include the unit.

INSERT INTO assay_data (molecular_string, target_desc, property_measured, measured_result) VALUES
  ('COC(=O)[C@]1(C)CCC[C@@]2(C)[C@@H]3CC[C@@]4(CO)C[C@]3(CC[C@@H]21)C[C@H]4N[C@@H](C)c1ccc2ccccc2c1', 'MDA-MB-231 cells', 'inhibition at 10 µM', 84.4),
  ('COC(=O)[C@]1(C)CCC[C@@]2(C)[C@@H]3CC[C@@]4(CNCc5ccc(OC)cc5)C[C@]3(CC[C@@H]21)C[C@H]4O', 'MDA-MB-231 cells', 'inhibition at 10 µM', 97.1);

Entry COC(=O)[C@]1(C)CCC[C@@]2(C)[C@@H]3CC[C@@]4(CNCc5ccc(F)cc5)C[C@]3(CC[C@@H]21)C[C@H]4O ; inhibition at 10 µM = 93

Please fill in: inhibition at 10 µM reported for COC(=O)[C@]1(C)CCC[C@@]2(C)[C@@H]3CC[C@@]4(CN[C@@H](C)c5ccc6ccccc6c5)C[C@]3(CC[C@@H]21)C[C@H]4O = 50.7
